PROTOCOL: Ratio of drug level in brain to plasma in C57BL/6 mouse
Type: ADME
SETUP CONDITIONS: read-out: BPR
PARAMETER MEASURED: Kp
Numbers only.

**Q:** Entry under review: COc1cc(C(F)(F)F)ccc1-c1ncnc2cc(S(=O)(=O)Nc3nccs3)ccc12 . Reported Kp?
**A:** 0.008

---

EXPERIMENTAL TARGET: Sodium channel protein type 9 subunit alpha (Homo sapiens, UniProt Q15858)
Sequence (Q15858 whole entry): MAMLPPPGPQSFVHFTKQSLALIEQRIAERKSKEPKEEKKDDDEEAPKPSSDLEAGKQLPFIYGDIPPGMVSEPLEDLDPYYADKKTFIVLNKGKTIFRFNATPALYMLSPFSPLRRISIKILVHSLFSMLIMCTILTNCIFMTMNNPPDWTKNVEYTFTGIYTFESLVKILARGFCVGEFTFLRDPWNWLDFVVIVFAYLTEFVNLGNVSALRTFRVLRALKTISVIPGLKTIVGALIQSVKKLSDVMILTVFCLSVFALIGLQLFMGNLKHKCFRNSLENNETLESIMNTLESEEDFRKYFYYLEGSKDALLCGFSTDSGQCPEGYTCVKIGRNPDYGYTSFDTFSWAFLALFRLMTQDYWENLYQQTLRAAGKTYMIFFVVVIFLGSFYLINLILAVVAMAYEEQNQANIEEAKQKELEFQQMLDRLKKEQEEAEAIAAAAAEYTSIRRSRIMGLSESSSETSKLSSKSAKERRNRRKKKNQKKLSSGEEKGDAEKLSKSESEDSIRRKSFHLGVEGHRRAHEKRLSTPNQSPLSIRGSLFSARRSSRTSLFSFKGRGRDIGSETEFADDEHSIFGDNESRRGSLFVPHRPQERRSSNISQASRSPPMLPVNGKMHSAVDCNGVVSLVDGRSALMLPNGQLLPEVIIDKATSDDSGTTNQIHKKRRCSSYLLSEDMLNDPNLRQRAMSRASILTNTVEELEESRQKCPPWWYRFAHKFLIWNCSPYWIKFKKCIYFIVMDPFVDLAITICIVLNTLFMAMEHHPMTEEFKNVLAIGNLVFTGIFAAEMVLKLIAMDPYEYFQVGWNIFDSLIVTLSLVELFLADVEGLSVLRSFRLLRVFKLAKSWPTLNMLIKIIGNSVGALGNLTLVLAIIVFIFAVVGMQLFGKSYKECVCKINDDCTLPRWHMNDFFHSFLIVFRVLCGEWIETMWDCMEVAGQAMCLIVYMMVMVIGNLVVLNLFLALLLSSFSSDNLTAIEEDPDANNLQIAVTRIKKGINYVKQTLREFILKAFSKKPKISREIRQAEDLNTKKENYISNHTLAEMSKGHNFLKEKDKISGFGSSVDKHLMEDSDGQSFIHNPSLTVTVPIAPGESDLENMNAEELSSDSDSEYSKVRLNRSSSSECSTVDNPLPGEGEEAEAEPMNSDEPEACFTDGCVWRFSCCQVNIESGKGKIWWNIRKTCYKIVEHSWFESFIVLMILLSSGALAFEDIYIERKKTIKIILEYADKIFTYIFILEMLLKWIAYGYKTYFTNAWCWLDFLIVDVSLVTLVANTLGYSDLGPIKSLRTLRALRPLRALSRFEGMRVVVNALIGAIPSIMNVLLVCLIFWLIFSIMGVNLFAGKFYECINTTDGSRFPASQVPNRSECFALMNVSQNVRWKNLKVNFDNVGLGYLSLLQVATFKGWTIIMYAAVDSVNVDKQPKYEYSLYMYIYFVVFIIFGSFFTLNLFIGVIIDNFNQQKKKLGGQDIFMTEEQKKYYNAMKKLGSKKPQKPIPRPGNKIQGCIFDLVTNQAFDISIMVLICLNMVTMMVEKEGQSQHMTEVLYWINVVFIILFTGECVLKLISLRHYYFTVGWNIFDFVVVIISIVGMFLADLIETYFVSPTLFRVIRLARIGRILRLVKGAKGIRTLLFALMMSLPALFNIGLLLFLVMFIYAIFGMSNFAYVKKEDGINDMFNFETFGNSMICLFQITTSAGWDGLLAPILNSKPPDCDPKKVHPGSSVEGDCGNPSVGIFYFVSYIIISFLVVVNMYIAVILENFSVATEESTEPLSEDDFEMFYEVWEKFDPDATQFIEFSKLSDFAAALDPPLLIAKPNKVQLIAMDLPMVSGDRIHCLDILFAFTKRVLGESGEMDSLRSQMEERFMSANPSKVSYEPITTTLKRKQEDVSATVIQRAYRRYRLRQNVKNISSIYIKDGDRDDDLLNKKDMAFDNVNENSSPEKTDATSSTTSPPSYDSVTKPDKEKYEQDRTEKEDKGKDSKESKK
PROTOCOL: Inhibition of human Nav1.7 in closed state expressed in HEK293 cells assessed as inhibition of sodium current at holding potential of -140 mV measured for 3 to 5 mins by whole cell voltage clamp method
Format: cell-based
PARAMETER MEASURED: IC50
Could you give the number and then its unit, please?

**Q:** Entry under review: COc1cc(C(F)(F)F)ccc1-c1ncnc2cc(S(=O)(=O)Nc3nccs3)ccc12 . Reported IC50?
**A:** 7.2 µM
